# pKi measurements, system: Uracil-DNA glycosylase (Homo sapiens)
# Sequence (P13051 whole entry): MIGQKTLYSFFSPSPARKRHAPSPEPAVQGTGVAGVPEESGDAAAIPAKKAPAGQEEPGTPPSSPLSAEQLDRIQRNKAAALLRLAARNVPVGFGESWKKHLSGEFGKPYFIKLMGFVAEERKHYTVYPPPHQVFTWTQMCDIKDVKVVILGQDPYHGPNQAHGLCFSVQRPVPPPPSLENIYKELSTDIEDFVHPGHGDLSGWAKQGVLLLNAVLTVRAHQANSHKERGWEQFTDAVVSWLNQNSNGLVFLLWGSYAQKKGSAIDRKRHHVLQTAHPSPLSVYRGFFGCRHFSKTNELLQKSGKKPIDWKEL
Friendly reminder that pKi comes from taking -log10 of the concentration in mol/L.

NOCCCNCc1cc(=O)[nH]c(=O)[nH]1: 3.15
O=Cc1cccc(C(=O)O)c1: 2.00

Task: Dear colleague, please send me the reported pKi for NCCCO/N=C/c1cc(=O)[nH]c(=O)[nH]1 when you can.
Output: 3.12

Task: Output pKi of NCCCO/N=C/c1cccc(C(=O)O)c1
Output: 2.00
